So I've got a bunch of compounds here, and I need their EE (%) values.
ASSAY SUMMARY: Encapsulation efficiency of RNA (QUANT-IT RIBOGREEN RNA assay)
Format: physicochemical
SETTINGS: Table 1; rows without footnote mark
Number plus unit, in that order.

Look up EE (%) for the entries below, preserving their order.
1. CCCCCCCCCCCCN(CCCCCCCCCCCC)CCN(CCCCCCCCCCCC)CCN1CCN(CCN(CCCCCC(=O)OCCCCC)CCCCCC(=O)OCCCCC)CC1
2. CCCCCCCCCCCCCCN(CCCCCCCCCCCCCC)CCN1CCN(CCN(CCCCCCCCC)CCN(CCCCCCCCC)CCCCCCCCC)CC1
3. CCCCCCCCCCCCN(CCCCCCCCCCCC)CCN(CCCCCCCCCCCC)CC(=O)N1CCN(C(=O)CN(CCCCCCCCCCCC)CCCCCCCCCCCC)CC1
4. CCCCCCCCCCCCCCN(CCCCCCCCCCCCCC)CCN(CCCCCCCCCCCCCC)CCN1CCN(CCN(CCCCCCCCCCCC)CCCCCC(=O)OCCCCC)CC1

96.6%
84.2%
99.5%
64.2%

Look up EE (%) for the entries below, preserving their order.
1. CCCCCCCC/C=C\CCCCCCCCN(CCCCCCCC/C=C\CCCCCCCC)CCN(CCCCCCCC/C=C\CCCCCCCC)CCN1CCN(CCN(CCCCCCCC/C=C\CCCCCCCC)CCCCCCCC/C=C\CCCCCCCC)CC1
2. CCCCCCCCCN(CCCCCCCCC)CCN(CCCCCCCCC)CC(=O)N1CCN(C(=O)CN(CCCCCCCCC)CCCC(=O)OCCCCC)CC1

["97.6%", "94.9%"]

---

ASSAY SUMMARY: Lipid clearance: % dose remaining in mouse liver 6 h and 24 h after administration of nanoparticle compositions
Type: in vivo, CD-1 mice
SETTINGS: Table 7c, 24 hr
Category scheme (% Dose Remaining 24 hr): lower band: < 0.6%; central band: ≥ 0.6% and < 6%; upper band: ≥ 6%

Examples from the recorded data:
{"COMPOUND": "CCCCCCCCCN(CCCOC(=O)CCCCC)CCC1CCN(C(=O)CN(CCCCCCCCC)CCN(CCCCCCCCC)CCCCCCCCC)CC1 [Compound 61]", "CLASS ASSIGNMENT": "lower band"}
{"COMPOUND": "CCCCCC=CCC=CCCCCCCCCC(CCCCCCCCC=CCC=CCCCCC)OC(=O)CCCN(C)C (stereo not drawn) [MC3, reference compound]", "CLASS ASSIGNMENT": "upper band"}
{"COMPOUND": "CCCCCCCCCN(CCCCC(=O)OCCCC)CCC1CCN(C(=O)CN(CCCCCCCCC)CCN(CCCCCCCCC)CCCCCCCCC)CC1 [Compound 60]", "CLASS ASSIGNMENT": "upper band"}
{"COMPOUND": "CCCCCCCCCN(CCCCCCCCC)CCN(CCCCCCCCC)CC(=O)N1CCN(C(=O)CN(CCCCCCCCC)CCCCC(=O)OCCCC)CC1 [Compound 55]", "CLASS ASSIGNMENT": "central band"}
{"COMPOUND": "CCCCCCCCCN(CCCCCCCCC)CCN(CCCCCCCCC)CC(=O)N1CCN(C(=O)CN(CCCCCCCCC)CCCCCCC(=O)OCC)CC1 [Compound 53]", "CLASS ASSIGNMENT": "central band"}

Class for CCCCCCCCCN(CCCCCCCC(=O)OC)CCC1CCN(C(=O)CN(CCCCCCCCC)CCN(CCCCCCCCC)CCCCCCCCC)CC1 [Compound 57] ?
lower band

Same lookup for CCCCCCCCCN(CCCCCCCCC)CCN(CCCCCCCCC)CC(=O)N1CCN(C(=O)CN(CCCC(=O)OCCCCC)CCCC(=O)OCCCCC)CC1 [Compound 72] , please.
upper band

Same lookup for CCCCCCCCCN(CCCCCCCCC)CCN(CCCCCCCCC)CC(=O)N1CCN(C(=O)CN(CCCCCCCCC)CCCOC(=O)CCCCC)CC1 [Compound 56] , please.
lower band

Same lookup for CCCCCCCCCN(CCCCCCCCC)CCN(CCCCCCCCC)CC(=O)N1CCN(C(=O)CN(CCCCCCCCC)CCCCCC(=O)OCCC)CC1 [Compound 54] , please.
central band

Same lookup for CCCCCCCCCN(CCCC(=O)OCCCCC)CCN(CCCCCCCCC)CC(=O)N1CCN(C(=O)CN(CCCCCCCCC)CCCC(=O)OCCCCC)CC1 [Compound 71] , please.
upper band

Same lookup for CCCCCCCCCN(CCCCCC(=O)OCCC)CCC1CCN(C(=O)CN(CCCCCCCCC)CCN(CCCCCCCCC)CCCCCCCCC)CC1 [Compound 59] , please.
central band

---

So I've got a bunch of compounds here, and I need their IP-10 values.
System: IP-10
ASSAY SUMMARY: Cytokine production induced by sample formulations: IP-10
Type: in vivo
SETTINGS: Table 17-4; mice, i.v., 0.5 mpk, 6 hours; in pg/mL (unit assumed)
Give bare numbers.

Study these solved cases before continuing.
{"COMPOUND": "CCCCCC=CCC=CCCCCCCCCC(CCCCCCCCC=CCC=CCCCCC)OC(=O)CCCN(C)C (stereo not shown) [MC3, reference compound]", "TARGET ENTITY": "IP-10", "OBSERVED MEASUREMENT": 500}
{"COMPOUND": "CCCCC/C=C\\C/C=C\\CCCCCCCCN(CCO)CCCCCCCCCCCC [Compound 17-4]", "TARGET ENTITY": "IP-10", "OBSERVED MEASUREMENT": 560}
{"COMPOUND": "CCCCC/C=C\\C/C=C\\CCCCCCCCN(CCCCCCCC/C=C\\C/C=C\\CCCCC)CCOC [Compound 17-9]", "TARGET ENTITY": "IP-10", "OBSERVED MEASUREMENT": 112}

// next item, IP-10 requested
Endpoint output: IP-10 of CCCCC/C=C\C/C=C\CCCCCCCCN(CCO)CCCCCCCCC [Compound 17-3] . Value?
66.8

---

ASSAY SUMMARY: pKa of nanoparticle compositions
Format: physicochemical
SETTINGS: Table 1; rows without footnote mark
So I've got a bunch of molecules here, and I need their pKa values.

Study these solved cases before continuing.
{"MOLECULE": "CCCCCCCCCCCCCCN(CCCCCCCCCCCCCC)CCN1CCN(CCN(CCCCCCCCC)CCN(CCCCCCCCC)CCCCCCCCC)CC1 [Compound 20]", "OBSERVED MEASUREMENT": 6.12}
{"MOLECULE": "CCCCCCCCCN(CCCCCCCC(=O)OC)CCN(CCCCCCCCC)CC(=O)N1CCN(C(=O)CN(CCCCCCCCC)CCCCCCCCC)CC1 [Compound 46]", "OBSERVED MEASUREMENT": 6.77}
{"MOLECULE": "CCCCCCCCCN(CCCCCCCCC)CCN(CCCCCCCCC)CC(=O)N1CC2CC1CN2C(=O)CN(CCCCCCCCC)CCCCCCCCC (stereo not drawn) [Compound 42]", "OBSERVED MEASUREMENT": 6.77}
{"MOLECULE": "CCCCCCCCCCCCN(CCCCCCCCCCCC)CC(=O)N1CCN(C(=O)CN(CCCCCCCCCCCC)CCN(CCCCCCCCC)CCCCCCCCC)CC1 [Compound 9]", "OBSERVED MEASUREMENT": 6.76}
{"MOLECULE": "CCCCCCCCCCCCCCN(CCCCCCCCCCCCCC)CCN(CCCCCCCCCCCCCC)CCN1CCN(CCN(CCCCCCCCCCCC)CCCCCC(=O)OCCCCC)CC1 [Compound 13]", "OBSERVED MEASUREMENT": 6.30}

Endpoint output: pKa of CCCCCCCCCCCCN(CCCCCCCCCCCC)CCN(CCCCCCCCCCCC)CCN1CCN(CCN(CCCCCC)CCCCCC)CC1 [Compound 21] . Value?
6.29

---

ASSAY SUMMARY: Particle size and polydispersity index of nanoparticle compositions (Zetasizer Nano ZS)
Format: physicochemical
SETTINGS: Table 1; rows without footnote mark (lipid:DOPE:cholesterol:PEG-DMG 40:20:38.5:1.5, Luc mRNA; MC3 standard formulation)
Consider the cut-off 90 nm. If the recorded Size (nm) is strictly smaller, the label is Satisfied; if not, the label is Not satisfied.

Examples from the recorded data:
{"SMILES REPR": "CCCCCCCCCCCCN(CCCCCCCCCCCC)CCN(CCCCCCCCCCCC)CC(=O)N1CCN(C(=O)CN(CCCCCCCCC)CCCCCCCCC)CC1", "CLASS ASSIGNMENT": "Satisfied"}
{"SMILES REPR": "CCCCCCCCCCCCN(CCCCCCCCCCCC)CCN(CCCCCCCCCCCC)CCN1CCN(CCN(CCCCCC)CCCCCC)CC1", "CLASS ASSIGNMENT": "Not satisfied"}
{"SMILES REPR": "CCCCCCCCCCCCCCN(CCCCCCCCCCCCCC)CCN(CCCCCCCCCCCCCC)CCN1CCN(CCN(CCCCCCCCC)CCCCCCCCC)CC1", "CLASS ASSIGNMENT": "Not satisfied"}

# next compound below
State whether 90 nm exceeds Size (nm) recorded for CCCCCCCCCCCCN(CCCCCCCCCCCC)CCN1CCN(CCN(CCCCCCCCCCCC)C(=O)CN(CCCCCCCCCCCC)CCCCCCCCCCCC)CC1 .
Not satisfied
